target: Peroxisome proliferator-activated receptor alpha (Homo sapiens, UniProt Q07869); assay: Binding affinity to human recombinant PPARalpha by Cheng-Prusoff equation based competitive binding TR-FRET assay
Sequence (Q07869 whole entry): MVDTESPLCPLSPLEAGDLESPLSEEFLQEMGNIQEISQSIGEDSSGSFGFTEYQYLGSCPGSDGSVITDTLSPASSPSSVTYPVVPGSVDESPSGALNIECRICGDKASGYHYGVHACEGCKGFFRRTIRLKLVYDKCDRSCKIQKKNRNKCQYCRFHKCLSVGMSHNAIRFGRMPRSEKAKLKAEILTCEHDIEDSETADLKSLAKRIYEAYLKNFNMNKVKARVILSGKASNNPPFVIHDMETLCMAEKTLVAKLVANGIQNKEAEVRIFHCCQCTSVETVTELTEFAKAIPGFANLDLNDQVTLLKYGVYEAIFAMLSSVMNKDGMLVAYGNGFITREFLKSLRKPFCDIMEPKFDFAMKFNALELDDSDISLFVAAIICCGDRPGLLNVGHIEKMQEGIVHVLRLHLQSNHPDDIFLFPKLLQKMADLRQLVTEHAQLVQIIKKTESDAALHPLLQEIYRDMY
measured.property: pKi
Keep in mind that pKi stands for -log10 of concentration in molar terms.

- entry.smiles: "COc1ccc(OC)c(/C=C/C(=O)OCc2cc(=O)c(O)co2)c1"
  pKi: 5.02

Now for the compound whose pKi we want.
The recorded pKi for entry COc1cccc(/C=C/C(=O)OCc2cc(=O)c(O)co2)c1OC equals 5.10

Hello, the source for this data is ChEMBL document CHEMBL4673218, in case you need it.
